Molecular target: HIV-1 Rev (Human immunodeficiency virus 1, UniProt P04618 P04618:1-116)
Sequence (P04618 whole entry, one chain of several): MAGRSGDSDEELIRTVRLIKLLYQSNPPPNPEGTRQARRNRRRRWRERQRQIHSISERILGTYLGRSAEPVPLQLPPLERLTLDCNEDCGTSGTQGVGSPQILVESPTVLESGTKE
Assay: filter
Details: tags: none stated; heparin-Sepharose and Superose 6 purified; chain copies: oligomer (tetramer likely; about 4 per RBC6, 6-8 per full-length RRE at 50 mM KCl) stated; label: 32P uniform; hairpin with purine-rich bubble
reportedProperty: pKd
As a rule, pKd stands for the negative log10 of the concentration, concentration in M.

Input line: Give its pKd value. Item: GGGAGACCGGAAUUCUGGGCGCUUCGGCGGUACAGA (ssRNA) [R38 (upper stem-loop replaced by CUUCGG)]
Output line: 8.76
